tested on: apomorphine-induced emesis; assay: apomorphine-induced emesis in dogs (anti-emetic effect); format: in vivo; conditions: Canis lupus familiaris, sc, read-out: ED50, Anti-Emetic Effect of Subcutaneous Administration
measured attribute: ED50
Write down the value, and be sure its unit follows.

In the examples that follow, each entry is paired with its recorded ED50.
Inquiry: Please indicate ED50 recorded for CC(=O)Nc1ccc(C(=O)NC2CCN(C3CCCCC3)C2)cc1 (stereo not shown) [Example 7]
Reply text: 2.4 mg/kg

Inquiry: Please indicate ED50 recorded for O=C(NC1CCN(C2CCCCC2)C1)c1ccc(Cl)cc1Cl (stereo not shown) [Example 32]
Reply text: 2.4 mg/kg

Inquiry: Please indicate ED50 recorded for O=C(NC1CCN(C2CCCCC2)C1)c1cc([N+](=O)[O-])cc([N+](=O)[O-])c1 (stereo not shown) [Example 12]
Reply text: 0.15 mg/kg

Here's the next entry for you.
Inquiry: Please indicate ED50 recorded for O=C(NC1CCN(C2CCCCC2)C1)c1ccc(F)cc1 (stereo not shown) [Example 10]
Reply text: 0.15 mg/kg

====

assay: Catalepsy in rats; format: in vivo; conditions: rat, in vivo, ip
measured attribute: TD50 at 6 h (mg/kg)
Numbers only, in mg/kg.

Inquiry: Please indicate TD50 at 6 h recorded for O=C(NC1CCN(C2CCCCC2)C1)c1ccc([N+](=O)[O-])cc1 (stereo not shown)
Reply text: 28

Ref: patent US3963745A
